Measured IC50 for Antibody (PM), MRC-5 bioassay (IL-1α-stimulated production of IL-8), listed per entry for reference.
Biological target: T1, cynomolgus IL-1α (cynomolgus, UniProt P79340 113-271, limits assumed)
T1 sequence (looked up): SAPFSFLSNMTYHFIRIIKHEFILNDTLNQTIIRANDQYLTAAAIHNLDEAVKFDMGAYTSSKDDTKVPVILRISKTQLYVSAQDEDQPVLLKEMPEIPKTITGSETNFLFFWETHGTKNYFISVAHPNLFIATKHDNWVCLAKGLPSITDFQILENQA
Experiment: cell-based or functional assay
endpoint: IC50 for Antibody (PM), MRC-5 bioassay (IL-1α-stimulated production of IL-8) (pM)

binder: h3D12.r16 (antibody, V domains shown) VH: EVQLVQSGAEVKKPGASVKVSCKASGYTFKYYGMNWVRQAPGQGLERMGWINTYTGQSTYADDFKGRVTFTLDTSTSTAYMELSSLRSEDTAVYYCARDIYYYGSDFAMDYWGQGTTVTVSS VL: DIQMTQSPSSLSASVGDRVTITCRASQDISNMLNWYQQKPGKAPKLLIYYTSRLKPGVPSRFSGSGSGTDYTFTISSLQPEDIATYFCQQGKTAPYTFGQGTKLEIK
observed.value: 0.8

binder: h3D12-362-10/372-15 (antibody, V domains shown) VH: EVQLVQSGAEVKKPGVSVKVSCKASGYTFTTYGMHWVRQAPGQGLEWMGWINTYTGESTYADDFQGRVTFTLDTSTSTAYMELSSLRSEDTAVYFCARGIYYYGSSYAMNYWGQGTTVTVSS VL: DIQMTQSPSSLSASVGDRVTITCRASQDISNMLNWYQQKPGKTPKLLIYYTSRLYPGVPSRFSGSGSGTDYTFTISSLQPEDIATYFCQQGKTLPYAFGQGTKLEIK
observed.value: 12.6

binder: murine anti-human IL-1α monoclonal antibody 3D12 (antibody, V domains shown) VH: QIQLVQSGPELKKPGETVKISCKASGYTFRNYGMNWVKQAPGKDLKRMAWINTYTGESTYADDFKGRFAFSLETSASTAYLQINNLKNEDTATYFCARGIYYYGSSYAMDYWGQGTSVTVSS VL: IQMTQTTSSLSASLGDRVTISCRASQDISNCLNWYQQKPDGTVKLLIYYTSRLHSGVPSRFSGSGSGTDYSLTISNLEQEDIATYFCQQGKTLPYAFGGGTKLEINR
observed.value: 72.3
